target: T1, hIL-17A (human, UniProt Q16552 24-155); assay: ELISA on captured hIL-17A, cleared E. coli lysates
T1 construct: Bought protein
T1 sequence (Q16552 24-155 limits assumed): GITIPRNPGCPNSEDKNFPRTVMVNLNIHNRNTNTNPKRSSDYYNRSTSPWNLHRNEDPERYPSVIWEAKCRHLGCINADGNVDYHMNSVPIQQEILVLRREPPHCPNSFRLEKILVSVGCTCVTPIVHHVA
EXPERIMENTAL_READOUT: binding result

See these solved cases before continuing.
{"columns": ["BINDER", "binding result"],
 "data": [
  ["V15 expressed in E. coli (Trx-6xHis-tagged) (receptor, Tested as cleared E. coli lysate; not shown: N-terminal thioredoxin (Trx)-6xHistidine tag of pET32) LRLLDHRALVCSQPGLNCTVKNSTCLDDSWIHPRNLTPSSPKDVQIQLHFAHTQQGDLFPVAHIEWTLQTDASILYLEGAELSVLQLNTNERLCVRFEILSKLRHHHRRWRFTFSHFVVDPGQEYEVTVHHLPKPIPDGDPNHQSKNFLVPDCEHARMKVTTPCMSSGSLWDPNITVETLEAHQLRVSFTLWNESTHYQILLTSFPHMENHSCFEHMHHIPAPRPEEFHQRSNVTLTLRNLKGCCRHQVQIQPFFSSCLNDCLRHSVTVSCPEMPDTPEPIPDYMPLW", "binds"],
  ["V8 expressed in E. coli (Trx-6xHis-tagged) (receptor, Tested as cleared E. coli lysate; not shown: N-terminal thioredoxin (Trx)-6xHistidine tag of pET32) LRLLDHRALVCSQEGLNCTVKNSTCLDDSWIHPRNLTPSSPKDLQIQLHFAHTQQGDLFPVAHIEWTLQTDASILYLEGAELSVLQLNTNERLCVRFEFLSKLRHHHKRWRFTFSHFVVDPDQEYEVTVHHLPKPIPDGDPNHQSKNFLVPDCEDARMKVTTPCMSSGSLWDPNITVETLEAHQLRVSFTLWNESTHYQILLTSFPHMENHSCFEHMHHIPAPRPEEFHQRSNVTLTLRNLKGCCRHQVQIQPFFSSCLNDCLRHSATVSCPEMPDTPEPIPDYMPLW", "binds"],
  ["V13 expressed in E. coli (Trx-6xHis-tagged) (receptor, Tested as cleared E. coli lysate; not shown: N-terminal thioredoxin (Trx)-6xHistidine tag of pET32) LRLLDHRALVCSQPGLNCTVKNSTCLDDSWIHPRNLTPSSPKDLQIQLHFAHTQQGDLFPVAHIEWTLQTDASILYLEGAELSVLQLNTNERLCVKFEFLSKLRHHHRRWRFTFSHFVVDPDQEYEVTVHHLPKPIPDGDPNHQSKNFLVPDCEDARMKVTTPCMSSGSLWDPNITVETLEAHQLRVSFTLWDESTHYQILLTSFPHMENHSCFEHMHHIPAPRPEEFHQRSNVTLTLRNLKWCCRHQVQIQPFFSSCLNDCLRHSATVSCPEMPDTPEPIPDYMPLW", "binds"],
  ["V21 expressed in E. coli (Trx-6xHis-tagged) (receptor, Tested as cleared E. coli lysate; not shown: N-terminal thioredoxin (Trx)-6xHistidine tag of pET32) LRLLDHRALVCSQPGLNCTVKNSTCLDDSWIHPRNLTPSSPKDLQIQLHFAHTQQGDLLPVAHIEWTLQTDASILYLEGAELSVLQLNTNERLCVRFEFLSKLRHHHKRWRFTFSHFVVDPGQEYEVTVHHLPKPIPDGDPNHQSKNFLVPDCEHPRMKVTTPCMSSGSLWDPNITVETLKAHQLRVSFTLWNESTHYQILLISFPHMENHSCFEHMHHIPAPRPEEFHQRSNVTLTLRNLKGCCRHQVQIQPFFSSCLNDCLRHSATVSCPEMPDTPEPIPDYMPLW", "binds"],
  ["V20 expressed in E. coli (Trx-6xHis-tagged) (receptor, Tested as cleared E. coli lysate; not shown: N-terminal thioredoxin (Trx)-6xHistidine tag of pET32) LRLLDHRAPVCSQEGLNCTVKNSTCLDDSWIHPRNLTPSSPKDVQIQLHFAHTQQGDLVPVAHIEWTLQTDASILYLEGAELSVLQLNTNERLCVRFEFLSKLRHHHRRWRFTFSHFVVDPDREYEVTVHHLPKPIPDGDPNHQSKNFLVPDCEHPRMKVTTPCMSSGSLWDPNITVETLEAHQLRVSFTLWNESTHYQILLTSFPHMENHSCFEHMHHIPAPRPEEFHQRSNVTLTLRNLKGCCRHQVQIQPFFSSCLNDCLRHSATVSCPEMPDTPEPIPDYMPLW", "binds"],
  ["V11 expressed in E. coli (Trx-6xHis-tagged) (receptor, Tested as cleared E. coli lysate; not shown: N-terminal thioredoxin (Trx)-6xHistidine tag of pET32) LRLLDHRALVCSQEGLNCTVKNSTCLDDSWIHPRNLTPSSPKDLQIQLHFAHTQQGDLFPVAHIEWTLQTDASILYLEGAELSVLQLNTNERLCVRFEFLSKLRHHHKRWRFTFSHFVVDPDREYEVTVHHLPKPIPDGDPNHQSKNFLVPDCEHPRMKVTTPCMSSGSLWDPNITVETLEAHQLRVSFTLWNESTHYQILLTSFPHMENHSCFEHMHHIPAPRPEEFHQRSNVTLTLRNLKGCCRHQVQIQPFFSSCLNDCLRHSATVSCPEMPDTPEPIPDYMPLW", "binds"]
]}

# batch size: 3; output binding result per entry
1. V19 expressed in E. coli (Trx-6xHis-tagged) (receptor, Tested as cleared E. coli lysate; not shown: N-terminal thioredoxin (Trx)-6xHistidine tag of pET32) LRLLDHQALVCSQEGLNCTVKNSTCLDDSWIHPRNLTPSSPKDIQIQLHFAHTQQGDLLPVAHIEWTLQTDASILYLEGAELSVLQLNTNERLCVRFEFLSKLRHHHRRWRFTFSHFVVDPDQEYEVTVHHLPKPIPDGDPNHQSKNFLVPDCEHARMKVTTPCMSSGSLWDPNITVETLEAHQLRVSFTLWNESTHYQILLTSFPHMENHSCFEHMHHIPAPRPEEFHQRSNVTLTLRNLKGCCRHQVQIQPFFSSCLNDCLRHSATVSCPEMPDTPEPIPDYMPLW
2. V16 expressed in E. coli (Trx-6xHis-tagged) (receptor, Tested as cleared E. coli lysate; not shown: N-terminal thioredoxin (Trx)-6xHistidine tag of pET32) LRLLDHRAPVCSQEGLNCTVKNSTCLDDSWIHPRNLTPSSPKDLQIQLHFAHTQQGDLFPVAHIEWTLQTDASILYLEGAELSVLQLNTNERLCVRFEFLSKLRHHHKRWRFTFSHFVVDPDQEYEVTVHHLPKPIPDGDPNHQSKNFLVPDCEDARMKVTTPCMSSGSLWDPNITVETLEAHQLRVSFTLWNESTHYQILLTSFPHMENHSCFEHMHHIPAPRPEEFHQRSNVTLTLRNLKGCCRHQVQIQPFFSSCLNDCLRHSATVSCPEMPDTPEPIPDYMPLW
3. V12 expressed in E. coli (Trx-6xHis-tagged) (receptor, Tested as cleared E. coli lysate; not shown: N-terminal thioredoxin (Trx)-6xHistidine tag of pET32) LRLLDHRAPVCSQPGLNCTVKNSTCLDDSWIHPRNLTPSSPKDLQIQLHFAHTQQGDLFPVAHIEWTLQTDASILYLEGAELSVLQLNTNERLCVRFEFLSKLRHHHRRWRFTFSRFVVDPDQEYEVTVHHLPKPIPDGDPNHQSKNFLVPDCEHPRMKVTTPCMSSGSLWDPNITVETLEAHQLRVSFTLWNESTHYQILLTSFPHMENHSCFEHMHHIPAPRPEEFHQRSNVTLTLRNLKGCCRHQVQIQPFFSSCLNDCLRHSATVSCPEMPDTPEPIPDYMPLW

binds
binds
binds
